So I've got a bunch of compounds here, and I need their growth values.
# System: 786-0 renal
# assay.summary: NCI-60 one-dose screen, 48 h (100 = growth as untreated, 0 = no growth, -100 = all killed)
# settings: 10 µM unless noted
Compounds without any hit were thinned out: in the full panel of roughly 83,000, 20% have a hit.
Numbers only here, please. The scale is %.

q: What value of growth has been reported for the following compound? CCCNC(=O)Oc1ccc(/C(=C(\C)c2ccccc2)c2ccc(OCCCN(C)C)cc2)cc1
a: 58.6

q: What value of growth has been reported for the following compound? CCc1c(Cl)nc(N)nc1Nc1ccc(C)c(C)c1
a: 101

q: What value of growth has been reported for the following compound? C/C(=N\NC(=O)CSc1nc2ccccc2c(=O)n1Cc1ccc(S(N)(=O)=O)cc1)c1ccc(F)cc1
a: 104

q: What value of growth has been reported for the following compound? Cc1nnc2c(Cc3ccccc3)nc3ccccc3n12
a: 98.6

q: What value of growth has been reported for the following compound? Cc1ccc(S(=O)(=O)NNC(=O)/C(=C\c2ccc(Cl)cc2)c2nc3ccccc3s2)cc1
a: 99.5

q: What value of growth has been reported for the following compound? CCCCCCNC(=O)Oc1ccc(/C(=C(\C)c2ccccc2)c2ccc(OCCCN(C)C)cc2)cc1
a: 71

q: What value of growth has been reported for the following compound? COC(=O)C1=C(C(=O)ON)[C@@H]2C=C[C@@]1([C@@H](Cc1ccccc1)Nc1ccccc1)O2
a: 101

q: What value of growth has been reported for the following compound? Cc1ccc(NC(=O)c2cc(-c3nc4ccccc4s3)c(=O)n(NS(=O)(=O)c3ccc(Cl)cc3)c2N)cc1
a: 101

q: What value of growth has been reported for the following compound? CCOC(=O)CC1CSC(N/N=C/c2ccc(-n3cccn3)cc2)=N1 (centres undefined)
a: 108

* * *

# System: BT-549 breast
# assay.summary: NCI-60 one-dose screen, 48 h
# settings: 10 µM unless noted
About 83,000 compounds went through this panel and 20% of them were active in at least one assay; those are over-represented in the sample as a whole. The source made the active and inactive calls. Rule for the calls: active = growth percent below 10; inactive = the rest.
Bench note: report the call from yes (active), no (inactive)

q: Assay outcome for COc1cc(OC)cc(C(=O)C[n+]2cccc3cc[nH]c32)c1 : what was it?
a: no

q: Assay outcome for Cc1ccc(S(=O)(=O)NNC(=O)/C(=C\c2ccc(Cl)cc2)c2nc3ccccc3s2)cc1 : what was it?
a: no

q: Assay outcome for O=C1c2cccc3c(-c4ccc5c(c4)ncn5C4CCCCC4)ccc(c23)C(=O)N1CCO : what was it?
a: no

q: Assay outcome for COC(=O)CNC(=O)[C@]12CCC(C)(C)C[C@H]1C1=CC[C@@H]3[C@@]4(C)Cc5c([nH]c6ccccc56)C(C)(C)[C@@H]4CC[C@@]3(C)[C@]1(C)CC2 : what was it?
a: no

q: Assay outcome for COc1ccc(C(=O)NNc2nc(Cl)nc(N3CCN(C(c4ccccc4)c4ccccc4)CC3)n2)cc1 : what was it?
a: no

q: Assay outcome for COc1ccc(/C=C2\Oc3cc(OCCCCCN4CCCCC4)ccc3C2=O)cc1OC : what was it?
a: no

q: Assay outcome for CN(C)c1ccc(Nc2c3ccccc3nc3cc(NC(=O)CCN4CCCC4)ccc23)cc1 : what was it?
a: no

q: Assay outcome for Cc1ccc(-n2c3c(c(-c4ccccc4)c2-c2ccccc2)C2=NCCN2C=N3)cc1 : what was it?
a: no

q: Assay outcome for O=C1c2ccc3c4c(ccc(c24)C(=O)N1CCCNCc1ccccc1)C(=O)N(CCCNCc1ccccc1)C3=O : what was it?
a: yes

q: Assay outcome for Cc1nc2sccn2c1-c1nc2sccn2c1/C=C1/C(=O)Nc2ccccc21 : what was it?
a: no

q: Assay outcome for CCCCCC(=O)Oc1ccc(/C(=C(\C)c2ccccc2)c2ccc(OCCN3CCCCC3)cc2)cc1 : what was it?
a: no

q: Assay outcome for C#Cc1cccc(NC(=O)c2cccc(NC(=O)CCl)c2)c1 : what was it?
a: yes

q: Assay outcome for COc1cc2nc(-c3ccc(C(F)(F)F)cc3)cc(OCCCN3CCOCC3)c2cc1OC : what was it?
a: no

q: Assay outcome for Oc1ccc(C(c2ccc(O)cc2)c2ccc(Br)cn2)cc1 : what was it?
a: yes

q: Assay outcome for COc1ccc(C(=O)C2C(C#N)C(C#N)C3c4ccccc4C=CN23)cc1 (configuration not stated) : what was it?
a: no

q: Assay outcome for CN1CCN(CCNc2nccc(-c3c(-c4cccc(O)c4)nc4sccn34)n2)S1(=O)=O : what was it?
a: no

q: Assay outcome for CCN(CC)CCCC(C)Nc1cc(O)cc2cccnc12 (configuration not stated) : what was it?
a: no

q: Assay outcome for CCCCCN1C=C/C(=C\C(=O)N2CCCc3ccccc32)c2ccccc21 : what was it?
a: no

q: Assay outcome for COc1cccc(-c2nc3occn3c2-c2ccnc(NCCNS(=O)(=O)c3ccc(C(F)(F)F)cc3)n2)c1 : what was it?
a: no

q: Assay outcome for Cc1c2cc[nH]c(=O)c2c(C)c2c1[nH]c1cc(OCCN3CCN(C)CC3)ccc12 : what was it?
a: no

q: Assay outcome for C=C1C(=O)O[C@H]2[C@H]1CC/C(COC(=O)NCC(C)c1ccc(CC(C)C)cc1)=C\CC[C@@]1(C)O[C@@H]21 (some centres not stated) : what was it?
a: yes

q: Assay outcome for Nc1c(S(=O)(=O)O)cc2c3c(cccc13)C(=O)OC2=O : what was it?
a: no

q: Assay outcome for CCc1c(Cl)nc(N)nc1Nc1ccc(C)c(C)c1 : what was it?
a: no

q: Assay outcome for CC1=CCC(OC(=O)C(C)(O)CCC(O)(C(=O)OC2(C)C=CC(O)(C(C)C)CC2)C(C)C)(C(C)C)CC1 (configuration not stated) : what was it?
a: no

q: Assay outcome for O=S(=O)(NCCNc1nccc(-c2c(-c3cccc(O)c3)nc3occn23)n1)c1ccccc1 : what was it?
a: no

q: Assay outcome for CN1CCC(=C(c2ccccc2)c2ccccc2)C(c2ccccc2)C1 (configuration not stated) : what was it?
a: no

q: Assay outcome for COc1cc(C2=NN(C(C)=O)C(c3cc(OC)c(OC)c(OC)c3)C2)ccc1O (configuration not stated) : what was it?
a: no

q: Assay outcome for CCCOC(=O)N[C@H]1CCc2c(Cl)c(OC)c(OC)c(OC)c2-c2ccc(SC)c(=O)cc21 : what was it?
a: yes

q: Assay outcome for C[C@H]1[C@H](C)CC[C@]2(C(=O)NCC#CCN3CCN(C)CC3)CC[C@]3(C)C(=CC[C@@H]4[C@@]5(C)Cc6c([nH]c7ccccc67)C(C)(C)[C@@H]5CC[C@]43C)[C@H]12 : what was it?
a: no

q: Assay outcome for CCCCCOc1ccc(/C=N/Nc2cc(C)nc3ccc(Cl)cc23)cc1 : what was it?
a: no

q: Assay outcome for COc1ccc(C(=O)c2cc(C)c(OC)c(C)c2)c(OC)c1N(C(=O)CCl)C(=O)CCl : what was it?
a: yes

q: Assay outcome for Cn1cc(-c2csc(-c3c[nH]c4ccccc34)n2)c2ccnc(Cl)c21 : what was it?
a: no

q: Assay outcome for O=C(C[n+]1cccc2ccccc21)c1ccc(O)c(O)c1 : what was it?
a: no

q: Assay outcome for O=S(=O)(NCCNc1nccc(-c2c(-c3cccc(F)c3)nc3sccn23)n1)c1ccc(Br)cc1 : what was it?
a: no

q: Assay outcome for CCOC(=O)c1cc(C(=O)c2cc(OC)cc(OC)c2)n2ccc3ccccc3c12 : what was it?
a: no

q: Assay outcome for CCOC(=O)c1cc(C(=O)c2ccc(OC)cc2)n2ccc(/C=C/c3cc[n+](CC(=O)c4ccc(OC)cc4)cc3)cc12 : what was it?
a: no

q: Assay outcome for COc1cc2oc(-c3cccc(C(=O)Nc4ccc5c(c4)OCO5)c3)cc(=O)c2c(O)c1OC : what was it?
a: no

* * *

# Tested on: SNB-75 CNS
# assay.summary: NCI-60 one-dose screen, 48 h
# settings: 10 µM unless noted
About 83,000 compounds went through this panel and 20% of them were active in at least one assay; those are over-represented in the sample as a whole. Activity calls are given as the source filed them. How the source made its calls: active means growth percent below 10; inactive means the rest.
Bench note: report the call from T = active, F = inactive

q: Assay outcome for COc1ccc(-c2[nH][nH]c(=O)c2-c2nc3ccccc3s2)cc1 : what was it?
a: F

q: Assay outcome for CCOC(=O)c1nc2c3ccccc3ccn2c1C(=O)OCC : what was it?
a: F

q: Assay outcome for COc1cc(CC(=O)n2ncc3ccc(N)cc32)cc(OC)c1OC : what was it?
a: F

q: Assay outcome for COc1ccc(C(=O)c2nc3ccccc3n2CC(=O)c2ccc(Cl)cc2)cc1 : what was it?
a: T

q: Assay outcome for O=S(=O)(NCCNc1nccc(-c2c(-c3cccc(O)c3)nc3occn23)n1)c1ccc(C(F)(F)F)cc1 : what was it?
a: F

q: Assay outcome for N#C/C(=C\c1c(-c2ccccc2)[nH]c2ccccc12)C(=O)c1ccc(Cl)cc1 : what was it?
a: T

q: Assay outcome for COc1cc2nc(-c3ccc(Cl)cc3)cc(OCCCN3CCC(O)CC3)c2cc1OC : what was it?
a: F

q: Assay outcome for Cc1cc2c(c(C)c1Cl)C(=O)/C(=C/c1ccc(O)c(O)c1)O2 : what was it?
a: F

q: Assay outcome for C=C1C(=O)O[C@H]2[C@H]1CC/C(CNS(=O)(=O)c1cccc3ccccc13)=C\CC[C@@]1(C)O[C@@H]21 : what was it?
a: F

q: Assay outcome for COc1ccc2c(c1)oc1c(C)c3c(c(C)c12)C(=O)N(N)C3=O : what was it?
a: T

q: Assay outcome for C=C(C)[C@@H]1CC[C@]2(C(=O)N[C@@H](Cc3ccccc3)C(=O)OC)CC[C@]3(C)[C@H](CC[C@@H]4[C@@]5(C)CCC(=O)C(C)(C)[C@@H]5CC[C@]43C)[C@@H]12 : what was it?
a: F

q: Assay outcome for NS(=O)(=O)c1ccc(CCN2C(=O)C=CC2=O)cc1 : what was it?
a: F

q: Assay outcome for CN(C)CC(O)c1ccc(/C=C/c2ccc(Cl)cc2)cc1 (centres undefined) : what was it?
a: T

q: Assay outcome for CC(C)(C)[Si](C)(C)OC1[C@@H](O[Si](C)(C)C(C)(C)C)[C@@H](CNC(=O)NC(=O)CCl)O[C@H]1n1cnc2c(NC(=O)Nc3ccccc3)ncnc21 (some centres undefined) : what was it?
a: T

q: Assay outcome for Cc1ccc(NC(=O)c2cc(-c3nc4ccccc4s3)c(=O)n(NS(=O)(=O)c3ccc(Cl)cc3)c2N)cc1 : what was it?
a: F

q: Assay outcome for Cc1nn(-c2ccccc2)c(Oc2c(Cl)cccc2Cl)c1/C=N/N=c1\sc2ccccc2n1C : what was it?
a: F

q: Assay outcome for COc1ccc2nc(-c3ccc(-c4noc(-c5cc(OC)c(OC)c(OC)c5)n4)cc3)[nH]c2c1 : what was it?
a: F

q: Assay outcome for COc1cc(/C=C/C(=O)c2nc3cc(F)ccc3nc2C)cc(OC)c1OC : what was it?
a: F

q: Assay outcome for NC(=NCCCOc1ccc(F)cc1)Nc1ccc(Cl)cc1 : what was it?
a: F
